- System: PPARg:RXRa (NR concentration 180 nM, RXRa partner concentration 90 nM)
- Test details: PBM binding z-score (relative to random genomic background probes); higher = stronger binding; sequences stand for … in GC…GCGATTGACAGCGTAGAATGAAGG
Reported PBM binding z-score values for a set of sequences
The answer should be written as a number, with no unit following it.

# Record sequence, System under test, PBM binding z-score
measured = [
    ("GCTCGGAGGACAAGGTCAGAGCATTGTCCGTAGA", "PPARg:RXRa (NR concentration 180 nM, RXRa partner concentration 90 nM)", 0.798),
]

Lookup: Which PBM binding z-score is reported with PPARg:RXRa (NR concentration 180 nM, RXRa partner concentration 90 nM) for this entry: "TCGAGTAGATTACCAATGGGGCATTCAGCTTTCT" ?
Found: -0.221

Lookup: Which PBM binding z-score is reported with PPARg:RXRa (NR concentration 180 nM, RXRa partner concentration 90 nM) for this entry: "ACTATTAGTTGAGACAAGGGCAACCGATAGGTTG" ?
Found: 0.795

Lookup: Which PBM binding z-score is reported with PPARg:RXRa (NR concentration 180 nM, RXRa partner concentration 90 nM) for this entry: "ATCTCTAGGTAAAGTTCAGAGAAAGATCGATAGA" ?
Found: 3.54

Lookup: Which PBM binding z-score is reported with PPARg:RXRa (NR concentration 180 nM, RXRa partner concentration 90 nM) for this entry: "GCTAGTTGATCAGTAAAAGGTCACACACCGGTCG" ?
Found: 2.11

Lookup: Which PBM binding z-score is reported with PPARg:RXRa (NR concentration 180 nM, RXRa partner concentration 90 nM) for this entry: "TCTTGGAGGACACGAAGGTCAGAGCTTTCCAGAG" ?
Found: 0.905
